# experimental_system: T1, PTHR-1 (species and cells not stated for the assay) (Homo sapiens (Human), UniProt Q03431 27-593)
# T1 sequence: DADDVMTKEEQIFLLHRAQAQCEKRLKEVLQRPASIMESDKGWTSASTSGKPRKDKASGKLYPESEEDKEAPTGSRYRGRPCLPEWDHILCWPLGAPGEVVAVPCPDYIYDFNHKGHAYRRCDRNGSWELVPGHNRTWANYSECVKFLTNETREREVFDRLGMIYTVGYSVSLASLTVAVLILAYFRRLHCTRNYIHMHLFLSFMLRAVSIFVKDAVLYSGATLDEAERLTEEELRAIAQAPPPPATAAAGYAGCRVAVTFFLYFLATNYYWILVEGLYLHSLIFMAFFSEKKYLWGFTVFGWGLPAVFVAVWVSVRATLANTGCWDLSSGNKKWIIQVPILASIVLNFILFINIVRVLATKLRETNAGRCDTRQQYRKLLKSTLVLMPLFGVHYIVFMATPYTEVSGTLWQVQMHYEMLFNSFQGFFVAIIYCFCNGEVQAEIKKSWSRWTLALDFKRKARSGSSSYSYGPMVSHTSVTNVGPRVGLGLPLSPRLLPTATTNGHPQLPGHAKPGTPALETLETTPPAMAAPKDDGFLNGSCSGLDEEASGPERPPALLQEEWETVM
# assay_remarks: cell-based or functional assay
Non-standard residues stand in square brackets, D forms with d. Primed or numbered codes have the meaning given here. No end group written: not given here. APC = aminopyrrolidine carboxylic acid (2-aminopyrrolidine-4-carboxylic acid); ACPC″ = 2-aminocyclopentane carboxylic acid (X); ACPC = 2-aminocyclopentane carboxylic acid

- binder: "[ACPC]VSE[ACPC]Q[ACPC]MHNLGKWLNSMERVEWLRKKLQDVHNF-NH2 (not fully specified; printed as XVSEXQXMHNLGKWLNSMERVEWLRKKLQDVHNF-NH2; also: D6 β3 residues, positions not shown (marking lost)) [D6_ACPC(1,5,7)]"
  display_unit: "nM"
  cAMP EC50: 167
- binder: "[ACPC]VSE[ACPC]Q[ACPC]MHNLGK[ACPC]LNS[ACPC]ERVEWLR[APC]KLQDVHN[ACPC]-NH2 (not fully specified; printed as XVSEXQXMHNLGKXLNSXERVEWLRZKLQDVHNX-NH2; also: further β3 residues, positions not shown (marking lost)) [CycD6_ACPC(1,5,7)]"
  display_unit: "nM"
  cAMP EC50: 21.7
- binder: "[ACPC″]VSEIQ[ACPC″]MHNLGK[ACPC″]LNS[ACPC″]ERV[APC]WLR[APC]KLQ[ACPC″]VHN[ACPC″]-NH2 [FcycD6_ACPC(1,7)]"
  display_unit: "nM"
  cAMP EC50: 0.71

Source: patent US20140378382A1
